Measured values drawn from paper PMC9911399 for this set.

I'd be grateful if you could share measured binding signal for these entries.
# assayed_system: T1, RBFOX1 RRM RbFoxmut (Fox-RRM*) (Homo sapiens, UniProt Q9NWB1 109-208, R118D;E147R;N151S;E152T)
# T1 sequence: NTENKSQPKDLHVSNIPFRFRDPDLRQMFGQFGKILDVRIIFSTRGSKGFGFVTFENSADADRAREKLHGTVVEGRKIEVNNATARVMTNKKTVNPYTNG
# assay_text: EMSA; HiTS-Eq, 1 nM pool, 10 min; buffer printed only for the single-RNA assays: 10 mM Tris pH 7.5, 150 mM NaCl, 3.4 mM EDTA, 0.001% NP-40, 30 C
# condition_details: tags: His6 N-terminal (pET28a); label: 5' 32P
Whole data set: some 16,000 sequences, median “ka relative to ugcaugu” near 0.096, cut for the highest 2% near 0.35. Many of the other results were omitted from the sample, so the highest values are more common in it than they were.

In the examples that follow, each entry is paired with its recorded binding signal.
1) GUCUUAA (DNA:RNA) RNA: GGGAGACCGGAAUUCAGAUUGUCCGUCUUAAUUAAAUCCCGUCGUAGCCACCA DNA 1: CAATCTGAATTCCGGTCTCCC DNA 2: TGGTGGCTACGACGGGATT    0.0967 KA relative to UGCAUGU
2) CCGGUCA (DNA:RNA) RNA: GGGAGACCGGAAUUCAGAUUGUCCCCGGUCAUUAAAUCCCGUCGUAGCCACCA DNA 1: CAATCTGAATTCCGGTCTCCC DNA 2: TGGTGGCTACGACGGGATT    0.0703 KA relative to UGCAUGU
3) CCUCUGC (DNA:RNA) RNA: GGGAGACCGGAAUUCAGAUUGUCCCCUCUGCUUAAAUCCCGUCGUAGCCACCA DNA 1: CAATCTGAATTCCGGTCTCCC DNA 2: TGGTGGCTACGACGGGATT    0.0985 KA relative to UGCAUGU

// moving on: another record for binding signal
Task item: Fill in reported binding signal for this entry: GUCUUGC (DNA:RNA) RNA: GGGAGACCGGAAUUCAGAUUGUCCGUCUUGCUUAAAUCCCGUCGUAGCCACCA DNA 1: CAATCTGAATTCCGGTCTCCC DNA 2: TGGTGGCTACGACGGGATT
Reply: 0.502 KA relative to UGCAUGU
